Exercise: state measured pIC50 for each of the compounds provided.
Target: C-C chemokine receptor type 5 (Homo sapiens, UniProt P51681)
Sequence (P51681 whole entry): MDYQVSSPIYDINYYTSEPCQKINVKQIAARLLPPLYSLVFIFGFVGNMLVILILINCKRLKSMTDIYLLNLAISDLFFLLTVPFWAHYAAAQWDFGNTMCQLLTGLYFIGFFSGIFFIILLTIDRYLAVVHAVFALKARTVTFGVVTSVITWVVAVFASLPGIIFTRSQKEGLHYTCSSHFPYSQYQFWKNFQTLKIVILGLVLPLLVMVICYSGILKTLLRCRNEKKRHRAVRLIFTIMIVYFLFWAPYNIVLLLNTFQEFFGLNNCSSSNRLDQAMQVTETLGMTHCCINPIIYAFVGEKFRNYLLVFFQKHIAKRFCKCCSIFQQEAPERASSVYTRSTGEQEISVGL
Assay: Antagonistic activity against human C-C chemokine receptor type 5.
Format: functional
Answers are plain numbers, as −log10 of the molar value.

Completed entries (count: 3):
[
  {
    "chemical-string": "Cc1cccc(C)c1C(=O)N1CCC(C)(N2CCC(Nc3ccc4ccn(C)c4c3)CC2)CC1",
    "pIC50": 7.04
  },
  {
    "chemical-string": "Cc1cccc(C)c1C(=O)N1CCC(C)(N2CCC(N(Cc3ccccc3)Cc3ccccc3)CC2)CC1",
    "pIC50": 7.12
  },
  {
    "chemical-string": "Cc1cc[n+]([O-])c(C)c1C(=O)N1CCC(C)(N2CCC(N(c3ccccc3)c3ccccc3)CC2)CC1",
    "pIC50": 8.48
  }
]

Now examine the next entry.
Exercise: Dear colleague, I am looking for the recorded pIC50 of the following compound: Cc1nc(-c2ccncc2)nc(C)c1C(=O)N1CCC(C)(N2CCC(N(c3ccccc3)c3ccccc3)CC2)CC1
Solution: 8.55

* * *

Assay: Compound was evaluated for rises in intracellular [Ca2+] levels pre-incubation at 2.5 min in [Ca2+] Mobilization Assay
Type: functional, cell-based
Would you kindly list log10(IC50) for each of these molecules?
Values below are the log10 of the recorded IC50, with nM as the unit.

Please review the following examples before continuing.
[
  {
    "chemical-string": "Cc1nc(-c2ccncc2)nc(C)c1C(=O)N1CCC(C)(N2CCC(N(c3ccccc3)c3ccccc3)CC2)CC1",
    "log10(IC50)": 2.10
  },
  {
    "chemical-string": "Cc1cc[n+]([O-])c(C)c1C(=O)N1CCC(C)(N2CCC(N(c3ccccc3)c3ccccc3)CC2)CC1",
    "log10(IC50)": 1.52
  },
  {
    "chemical-string": "Cc1cccc(C)c1C(=O)N1CCC(C)(N2CCC(N(Cc3ccccc3)c3ccc(Br)cc3)CC2)CC1",
    "log10(IC50)": 3.16
  },
  {
    "chemical-string": "Cc1cccc(C)c1C(=O)N1CCC(C)(N2CCC(N(c3ccccc3)c3ccccc3)CC2)CC1",
    "log10(IC50)": 2.40
  },
  {
    "chemical-string": "Cc1ccnc(C)c1C(=O)N1CCC(C)(N2CCC(N(c3ccccc3)c3ccccc3)CC2)CC1",
    "log10(IC50)": 2.06
  },
  {
    "chemical-string": "Cc1cccc(C)c1C(=O)N1CCC(C)(N2CCC(N(Cc3ccccc3)c3ccccc3)CC2)CC1",
    "log10(IC50)": 2.30
  }
]

Proceeding to the next molecule to report its log10(IC50).
Exercise: Quick one: log10(IC50) for CC1(N2CCC(N(c3ccccc3)c3ccccc3)CC2)CCN(C(=O)c2cccc3ccccc23)CC1 ?
Solution: 2.79

* * *

Test: Tmax in monkeys
Type: ADME
Conditions: simiiformes, in vivo
measured-attribute: Tmax
# number then unit; no other words

Exercise: Using the record for Cc1cccc(C)c1C(=O)N1CCC(C)(N2CCC(N(Cc3ccccc3)c3ccccc3)CC2)CC1 , report its Tmax.
Solution: 30 min

* * *

Provide the reported MRT of each item.
Assay: Mean residence time was determined
Assay type: ADME, organism-based
Details: in vivo
One number for each entry, in h.

Look over these answered cases.
[
  {
    "chemical-string": "Cc1nc[n+]([O-])c(C)c1C(=O)N1CCC(C)(N2CCC(N(c3ccccc3)c3ccccc3)CC2)CC1",
    "MRT, h": 6
  },
  {
    "chemical-string": "Cc1cccc(C)c1C(=O)N1CCC(C)(N2CCC(N(Cc3ccccc3)c3ccccc3)CC2)CC1",
    "MRT, h": 8.9
  }
]

Now for another entry.
Exercise: For the compound shown here, Cc1nc(-c2ccncc2)nc(C)c1C(=O)N1CCC(C)(N2CCC(N(c3ccccc3)c3ccccc3)CC2)CC1 , give the reported MRT.
Solution: 5.8
